Molecular target: human vasopressin V2 receptor subtype (Homo sapiens, UniProt P30518)
Construct: host or cells: CHO cells (pZeoSV vector)
Sequence (P30518 whole entry): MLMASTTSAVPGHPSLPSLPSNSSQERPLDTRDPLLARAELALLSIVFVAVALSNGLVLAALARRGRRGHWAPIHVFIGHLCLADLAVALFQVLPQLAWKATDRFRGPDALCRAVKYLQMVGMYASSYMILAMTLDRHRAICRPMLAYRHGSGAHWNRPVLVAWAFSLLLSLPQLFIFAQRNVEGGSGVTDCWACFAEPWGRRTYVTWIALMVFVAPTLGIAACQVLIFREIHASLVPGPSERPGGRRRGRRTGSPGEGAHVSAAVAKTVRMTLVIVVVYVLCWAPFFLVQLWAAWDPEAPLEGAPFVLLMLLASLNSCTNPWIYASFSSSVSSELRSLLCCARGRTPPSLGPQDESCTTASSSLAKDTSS
Experiment: Vasopressin binding in Chinese Hamster Ovary cell membranes expressing human vasopressin V2 subtype receptors
Details: 100 nM, CHO cell membranes, [3H]arginine vasopressin, values without parentheses

# COMPOUND, inhibition at 0.1 µM
data = [
    ("COc1cc(C(=O)N2Cc3ccc(C(=O)N4CCN(C(C)C)CC4)n3Cc3ccccc32)ccc1-c1cccc2ccccc12 [Example 236]", "5%"),
    ("COc1cccc(-c2cc(OC)c(C(=O)N3Cc4ccc(C(=O)NCCN5CCCCC5)n4Cc4ccccc43)cc2Cl)c1 [Example 156]", "12%"),
    ("C=CCN1CCN(C(=O)c2ccc3n2Cc2ccccc2N(C(=O)c2ccc(-n4c(C)ccc4C)c(OC)c2)C3)CC1 [Example 318]", "17%"),
]

###

Biological target: human vasopressin V1a receptor subtype (Homo sapiens, UniProt P37288)
Construct: host or cells: CHO cells (pZeoSV vector for the Thibonnier line)
Sequence (P37288 whole entry): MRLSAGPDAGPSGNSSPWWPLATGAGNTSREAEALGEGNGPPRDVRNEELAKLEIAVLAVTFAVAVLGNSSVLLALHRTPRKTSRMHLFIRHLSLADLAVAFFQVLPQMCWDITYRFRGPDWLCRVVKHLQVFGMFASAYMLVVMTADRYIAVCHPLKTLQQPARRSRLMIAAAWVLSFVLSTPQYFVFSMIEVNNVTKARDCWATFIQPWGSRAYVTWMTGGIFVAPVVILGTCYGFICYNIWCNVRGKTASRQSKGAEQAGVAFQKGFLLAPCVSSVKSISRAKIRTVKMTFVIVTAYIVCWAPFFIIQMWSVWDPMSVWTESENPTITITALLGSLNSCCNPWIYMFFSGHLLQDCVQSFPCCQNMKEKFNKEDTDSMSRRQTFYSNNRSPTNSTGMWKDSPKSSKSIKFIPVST
Test: Vasopressin binding in Chinese Hamster Ovary cell membranes expressing human vasopressin V1a subtype receptors
Conditions: 100 nM, CHO cell membranes, [3H]Manning ligand, values without parentheses
Output 1 for inhibition at 0.1 µM not less than 10%; output -1 otherwise.

# MOLECULE, LABEL CLASS
data = [
    ("Cc1ccccc1-c1ccc(C(=O)N2Cc3ccc(C(=O)N4CCN(CCN(C)C)CC4)n3Cc3ccccc32)cc1C", 1),
    ("COc1ccccc1-c1ccc(C(=O)N2Cc3ccc(C(=O)N(C)CCN(C)C)n3Cc3ccccc32)cc1", 1),
    ("COc1ccccc1-c1ccc(C(=O)N2Cc3ccc(C(=O)N4CCC(N5CCCCC5)CC4)n3Cc3ccccc32)cc1OC", -1),
    ("COc1ccccc1-c1ccc(C(=O)N2Cc3ccc(C(=O)N4CCN(C(C)C)CC4)n3Cc3ccccc32)cc1", 1),
    ("COc1cc(C(=O)N2Cc3ccc(C(=O)NCCCn4ccnc4)n3Cc3ccccc32)ccc1-n1c(C)ccc1C", -1),
    ("COc1ccccc1-c1ccc(C(=O)N2Cc3ccc(C(=O)NCCN4CCCCC4)n3Cc3ccccc32)cc1", 1),
    ("COc1cc(C(=O)N2Cc3ccc(C(=O)N4CCN(CCN5CCOCC5)CC4)n3Cc3ccccc32)ccc1-c1cccc2ccccc12", 1),
    ("COc1cccc(-c2ccc(C(=O)N3Cc4ccc(C(=O)N5CCC(N6CCCC6)CC5)n4Cc4ccccc43)cc2OC)c1", 1),
    ("COc1cc(-c2ccccc2C)c(Cl)cc1C(=O)N1Cc2ccc(C(=O)N3CCN(C(C)C)CC3)n2Cc2ccccc21", -1),
    ("COc1cccc(-c2cc(OC)c(C(=O)N3Cc4ccc(C(=O)N5CCN(CCN(C)C)CC5)n4Cc4ccccc43)cc2Cl)c1", -1),
    ("COc1ccccc1-c1ccc(C(=O)N2Cc3ccc(C(=O)NCCC4CCCN4C)n3Cc3ccccc32)cc1C (centres unmarked)", 1),
    ("COc1cccc(-c2ccc(C(=O)N3Cc4ccc(C(=O)N(C)CCCN(C)C)n4Cc4ccccc43)cc2OC)c1", 1),
    ("COc1ccccc1-c1ccc(C(=O)N2Cc3ccc(C(=O)N[C@@H](CCCCNC(=O)OC(C)(C)C)C(N)=O)n3Cc3ccccc32)cc1OC", -1),
]

###

Target: human oxytocin receptor (Homo sapiens, UniProt P30559)
Construct: host or cells: CHO cells (pcDNA3.1 vector)
Sequence (P30559 1-389): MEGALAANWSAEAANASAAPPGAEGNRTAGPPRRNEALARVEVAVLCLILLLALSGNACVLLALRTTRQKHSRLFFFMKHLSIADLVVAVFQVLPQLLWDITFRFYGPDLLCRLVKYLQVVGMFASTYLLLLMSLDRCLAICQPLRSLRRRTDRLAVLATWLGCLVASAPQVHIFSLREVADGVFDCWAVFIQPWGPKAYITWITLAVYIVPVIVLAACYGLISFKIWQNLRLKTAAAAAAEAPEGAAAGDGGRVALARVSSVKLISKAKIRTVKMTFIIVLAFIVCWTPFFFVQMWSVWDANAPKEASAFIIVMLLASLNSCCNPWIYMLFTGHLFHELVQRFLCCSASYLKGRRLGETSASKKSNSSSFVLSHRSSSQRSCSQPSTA
Assay: Oxytocin binding in Chinese Hamster Ovary cell membranes expressing human oxytocin receptors
Conditions: 100 nM, CHO cell membranes, [3H]oxytocin, values without parentheses, read-out: OT % inhibition @ 100% nM
Give rule met when the value for inhibition at 0.1 µM is at least 70%. Give rule not met when it is less.

# COMPOUND, LABEL CLASS
records = [
    ("C=CCN1CCN(C(=O)c2ccc3n2Cc2ccccc2N(C(=O)c2ccc(-c4cccc5ccccc45)c(OC)c2)C3)CC1 [Example 231]", "rule not met"),
    ("Cc1cc(C(=O)N2Cc3ccc(C(=O)N4CCN(CCCN(C)C)CC4)n3Cc3ccccc32)ccc1-c1ccccc1C(F)(F)F [Example 257]", "rule met"),
    ("Cc1ccccc1-c1ccc(C(=O)N2Cc3ccc(C(=O)NCCCn4ccnc4)n3Cc3ccccc32)cc1 [Example 127]", "rule not met"),
    ("Cc1ccccc1-c1ccc(C(=O)N2Cc3ccc(C(=O)N(C)C4CCN(C)CC4)n3Cc3ccccc32)cc1 [Example 178]", "rule met"),
    ("COc1cccc(-c2ccc(C(=O)N3Cc4ccc(C(=O)N5CCN(C(C)C)CC5)n4Cc4ccccc43)cc2C)c1 [Example 235]", "rule not met"),
    ("COc1cccc(-c2cc(OC)c(C(=O)N3Cc4ccc(C(=O)N[C@@H](Cc5c[nH]cn5)C(N)=O)n4Cc4ccccc43)cc2Cl)c1 [Example 287]", "rule met"),
]
